Cited source: patent US20250188103A1

TARGET ENTITY: GLP-1 Receptor (Homo sapiens)
Construct: HD Biosciences / HDB (Method 3)
Sequence (P43220 24-463): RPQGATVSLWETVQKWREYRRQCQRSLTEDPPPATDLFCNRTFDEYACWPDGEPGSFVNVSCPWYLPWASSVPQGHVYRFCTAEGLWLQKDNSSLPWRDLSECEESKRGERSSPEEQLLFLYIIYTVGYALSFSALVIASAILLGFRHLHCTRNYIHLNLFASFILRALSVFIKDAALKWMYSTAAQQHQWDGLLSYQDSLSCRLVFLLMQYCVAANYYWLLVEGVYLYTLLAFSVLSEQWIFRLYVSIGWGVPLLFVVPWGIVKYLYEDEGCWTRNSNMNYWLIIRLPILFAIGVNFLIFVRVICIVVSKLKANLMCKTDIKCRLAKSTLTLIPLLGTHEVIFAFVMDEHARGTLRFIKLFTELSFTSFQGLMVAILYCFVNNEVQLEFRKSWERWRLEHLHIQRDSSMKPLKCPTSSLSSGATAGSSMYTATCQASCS
PROTOCOL: GLP-1R agonist cAMP stimulation assay
CONDITION CONTEXT: cells stably expressing the GLP-1 Receptor (method not given)
Field: pEC50. Provide a value for each of the compounds that follow.
# log scale: pEC50 equals minus log10 of the concentration in mol/L

Prompt line: May I ask what pEC50 has been recorded for CCP(=O)(CC)c1ccc(-n2ccn(-c3c4c(nn3-c3cc(C)c(F)c(C)c3)CCN(C(=O)c3[nH]c5cc(C6CCOCC6)ccc5c3C3(c5noc(=O)[nH]5)CC3)[C@H]4C)c2=O)cc1NC [Compound 28] ?
Response line: 10.48

Prompt line: May I ask what pEC50 has been recorded for CCP(=O)(CC)c1ccc(-n2ccn(-c3c4c(nn3-c3cc(C)c(F)c(C)c3)CCN(C(=O)c3sc5cc(C6CCOCC6)ccc5c3C3(c5noc(=O)[nH]5)CC3)[C@H]4C)c2=O)cc1NC [Compound 18] ?
Response line: 10.21

Prompt line: May I ask what pEC50 has been recorded for CCP(=O)(CC)c1ccc(-n2ccn(-c3c4c(nn3-c3cc(C)c(F)c(C)c3)CCN(C(=O)c3cc5cc(C6CCOCC6)cnn5c3C3(c5noc(=O)[nH]5)CC3)[C@H]4C)c2=O)cc1NC [Compound 26] ?
Response line: 10.85

Prompt line: May I ask what pEC50 has been recorded for CCP(=O)(CC)c1ccc(-n2ccn(-c3c(-c4cc(C)c(F)c(C)c4)nn4c3C(C)N(C(=O)c3nc5cc(C6CCOCC6)ccn5c3C3(c5noc(=O)[nH]5)CC3)CC4)c2=O)cc1NC (stereo not shown) [Compound 29] ?
Response line: 7.54

Prompt line: May I ask what pEC50 has been recorded for CNc1cc(-n2ccn(-c3c4c(nn3-c3cc(C)c(F)c(C)c3)CCN(C(=O)c3cc5cc(C6CCOCC6)ccn5c3C3(c5noc(=O)[nH]5)CC3)[C@H]4C)c2=O)ccc1P(C)(C)=O [Compound 3] ?
Response line: 10.15

Prompt line: May I ask what pEC50 has been recorded for CCP(=O)(CC)c1ccc(-n2ccn(-c3c4c(nn3-c3cc(C)c(F)c(C)c3)CCN(C(=O)c3nn5cc(C6CCOCC6)cnc5c3C3(c5noc(=O)[nH]5)CC3)[C@H]4C)c2=O)cc1NC [Compound 24] ?
Response line: 9.74

Prompt line: May I ask what pEC50 has been recorded for CCP(=O)(CC)c1ccc(-n2ccn(-c3c4c(nn3-c3cc(C)c(F)c(C)c3)CCN(C(=O)c3cc5cc(C6CCOCC6)ccn5c3C3(c5noc(=O)[nH]5)CC3)[C@H]4C)c2=O)cc1NC [Compound 21] ?
Response line: 10.70

Prompt line: May I ask what pEC50 has been recorded for CCP(=O)(CC)c1ccc(-n2ccn(-c3c(-c4cc(C)c(F)c(C)c4)nn4c3C(C)N(C(=O)c3sc5cc(C6CCOCC6)ccc5c3C3(c5noc(=O)[nH]5)CC3)CC4)c2=O)cc1NC (stereo not shown) [Compound 30] ?
Response line: 9.49

Prompt line: May I ask what pEC50 has been recorded for CCP(=O)(CC)c1ccc(-n2ccn(-c3c4c(nn3-c3cc(C)c(F)c(C)c3)CCN(C(=O)c3oc5cc(C6CCOCC6)ccc5c3C3(c5noc(=O)[nH]5)CC3)[C@H]4C)c2=O)cc1NC [Compound 19] ?
Response line: 10.31

Prompt line: May I ask what pEC50 has been recorded for [2H]C([2H])([2H])Nc1cc(-n2ccn(-c3c4c(nn3-c3ccc(F)c(C5CC5)c3)CCN(C(=O)c3cc5cc(C6CCOCC6)ccn5c3C3(c5noc(=O)[nH]5)CC3)[C@H]4C)c2=O)ccc1P(C)(C)=O [Compound 6] ?
Response line: 10.05

Prompt line: May I ask what pEC50 has been recorded for CNc1cc(-n2ccn(-c3c4c(nn3-c3ccc(F)c(C5CC5)c3)CCN(C(=O)c3cc5cc(C6CCOCC6)ccn5c3C3(c5noc(=O)[nH]5)CC3)[C@H]4C)c2=O)ccc1P(C)(C)=O [Compound 4] ?
Response line: 10.07

Prompt line: May I ask what pEC50 has been recorded for CCP(=O)(CC)c1ccc(-n2ccn(-c3c4c(nn3-c3ccc(F)c(C5CC5)c3)CCN(C(=O)c3cc5cc(C6CCOCC6)ccn5c3C3(c5noc(=O)[nH]5)CC3)[C@H]4C)c2=O)cc1NC [Compound 5] ?
Response line: 9.96

Prompt line: May I ask what pEC50 has been recorded for CCP(=O)(CC)c1ccc(-n2ccn(-c3c4c(nn3-c3cc(C)c(F)c(C)c3)CCN(C(=O)c3cn5cc(C6CCOCC6)ccc5c3C3(c5noc(=O)[nH]5)CC3)[C@H]4C)c2=O)cc1NC [Compound 20] ?
Response line: 10.52
